assay: NCI Yeast Anticancer Drug Screen. Data for the cln2 rad14 strain (AID 165); settings: S. cerevisiae cln2 rad14 strain, at 50.0 µM (retest, dose inferred, filed as 5.0)
This is part of a sample that, as a whole, favours compounds with a hit. Of some 79,000 tested, about 15% had one in any assay. Calls of active or inactive are those of the source. No stated cut-off is given here; in the data, active means growth inhibition above about 70%; inactive means the rest.
Choose the fitting class; nothing outside active, inactive is accepted.

For CC(=O)N(C1=CC(=O)c2ccccc2C1=O)c1ccc(C)cc1 , what call appears in the results of this test? inactive

What call does the record list for CP(=O)(c1ccccc1)c1ccccc1 ? inactive

Could you please tell me the result logged for O=C(O)CCn1c2ccccc2c2ccccc21 in this assay? inactive

Hi, sorry to bother you, what did the test record for C1CCC(CCCCc2nn[nH]n2)CC1 ? active

How did this test come out for N#CC(C#N)=C/C=C/c1c(Cl)cccc1Cl ? inactive

In this assay, the call recorded for CCCC#CCCOC(=O)c1cc([N+](=O)[O-])cc([N+](=O)[O-])c1 was what? active

Tell me the assay call for Cc1cc(NC(=S)SCc2ccc(Cl)cc2)c([N+](=O)[O-])cc1C please. active

Each compound tested received a call. Report the one for Cn1c(-c2ccc(/C=N/NC(=S)N/N=C/c3ccc(-c4c[n+]5ccsc5n4C)cc3)cc2)c[n+]2ccsc12 . active

Per the records of this test, what outcome belongs to O=C1CCC(C(c2ccccc2)(c2ccccc2)c2ccccc2)CC1=O (stereo not drawn) ? active

Just curious, what result did C[CH2][Ge]([CH2]C)[CH2]C.C[CH2][Ge]([Cl])[CH2]C.C[CH2][Ge][CH2]C get here? active

Could you please tell me the result logged for CC(C)Cn1cnc2c(SCc3ccccc3[N+](=O)[O-])nc(N)nc21 in this assay? inactive

In this assay, the call recorded for COc1ccc(C2COc3c(ccc(O)c3O)C2)cc1 (stereo not drawn) was what? active

Would you mind telling me which call this test gave COc1ccc(CC2c3cc4c(cc3CCN2C)OCO4)c(C=O)c1OC (stereo not drawn) ? inactive

Please share the test call associated with COC(=O)c1ccc2ccccc2c1 . inactive

Returns: the outcome recorded for C(=Nc1ccccc1)c1cn(Cc2ccccc2)c2ccccc12 in this assay. active

Please share the test call associated with C/C(=N/NC(=S)Nc1ccc(C)cc1)c1ccccn1 . active

For Cc1c(Cl)cccc1NC(=O)/C(Cl)=C(\Cl)C(=O)O , what call appears in the results of this test? inactive

I would be grateful if you could indicate the recorded call for O=CC(=C\c1ccco1)/C(C=O)=C\c1ccco1 . inactive

Which outcome was assigned to CC(=O)[C@H]1CC[C@H]2[C@@H]3CC[C@H]4C[C@@H](N5CCOCC5)CC[C@]4(C)[C@H]3CC[C@]12C in this test? inactive

What outcome does the record of this test show for CCC[n+]1ccnc2ccccc21 ? inactive

What did this assay record as the result for CCn1c2ccccc2c2ccc(C3C(C(=O)OC)=C(C)NC(C)=C3C(=O)OC)cc21 ? inactive

Recorded test outcome, item Clc1c(Cl)c(Cl)c(SC2C3CC4C(C3)C42)c(Cl)c1Cl (stereo not drawn) active

Test call for this compound, please: CSc1nc(C)cc(SCc2ccc(Cl)cc2Cl)n1 inactive
